Here the recorded log10 Ki is given for each entry.
biological target: human V1a receptor (Homo sapiens, UniProt P37288); construct: expressed in transfected cells; host or cells: HEK293 cells, transiently transfected; membranes; test: human V1a receptor binding studies (3H-Vasopressin SPA, membranes of transfected HEK293 cells); conditions: 3H-Vasopressin displacement, HEK293 cell membranes, SPA beads, 1 h at room temperature, Ki by Cheng-Prussoff from IC50, read-out: pKi (hV1a) (converted)
Sequence (P37288 whole entry): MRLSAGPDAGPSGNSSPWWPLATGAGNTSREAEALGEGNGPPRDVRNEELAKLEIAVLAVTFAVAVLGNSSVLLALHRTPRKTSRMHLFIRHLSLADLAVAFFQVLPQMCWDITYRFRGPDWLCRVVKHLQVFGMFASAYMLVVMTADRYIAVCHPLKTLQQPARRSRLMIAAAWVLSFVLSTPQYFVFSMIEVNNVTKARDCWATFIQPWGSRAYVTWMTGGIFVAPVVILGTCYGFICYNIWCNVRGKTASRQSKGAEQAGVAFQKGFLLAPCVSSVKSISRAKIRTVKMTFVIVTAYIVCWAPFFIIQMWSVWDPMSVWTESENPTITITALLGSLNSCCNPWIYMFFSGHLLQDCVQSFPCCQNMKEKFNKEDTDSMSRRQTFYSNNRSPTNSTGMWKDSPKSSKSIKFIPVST
Counter-ions that a name gives are not always drawn.
RECORDED_ENDPOINT: log10 Ki (log10 of the value in nM)

> print(dat)
                                   compound  recorded.endpoint  result
1  CC(C)(C)OC(=O)N1Cc2cc(Cl)ccc2-n2c(nnc2C2CC=C(c3cccc(OC(F)(F)F)c3)CC2)C1 (racemic)           log10 Ki    1.86
2  CC(C)(C)OC(=O)N1Cc2cc(Cl)ccc2-n2c(nnc2C2CC=C(c3cccc(C#N)c3)CC2)C1 (racemic)           log10 Ki    1.67
3  CN1Cc2cc(Cl)ccc2-n2c(nnc2C2CC=C(c3cccc(C#N)c3)CC2)C1 (racemic)           log10 Ki    1.75
4  CN1Cc2cc(Cl)ccc2-n2c(nnc2C2CC=C(c3ccccn3)CC2)C1 (single isomer, unassigned; (+)) [Example 24]           log10 Ki    0.46
5  Clc1ccc2c(c1)CNCc1nnc(C3CC=C(c4ccccc4)CC3)n1-2 (racemic) [Example 1, hydrochloride]           log10 Ki    1.00
6  Cc1ccccc1C1=CCC(c2nnc3n2-c2ccc(Cl)cc2CN(C)C3)CC1 (racemic)           log10 Ki    0.32
7  COc1ccc(F)cc1C1=CCC(c2nnc3n2-c2ccc(Cl)cc2CNC3)CC1 (racemic) [Example 18, hydrochloride]           log10 Ki    1.99

###

biological target: human V1a receptor (Homo sapiens, UniProt P37288); construct: expressed in transfected cells; host or cells: HEK293 cells, transiently transfected; membranes; test: human V1a receptor binding studies (3H-Vasopressin SPA, membranes of transfected HEK293 cells); conditions: pKi (hV1a), 3H-Vasopressin displacement, HEK293 cell membranes, SPA beads, 1 h at room temperature, Ki by Cheng-Prussoff from IC50
RECORDED_ENDPOINT: Ki (nM)

> print(dat)
                                   compound  unit.descriptor  result
1  CN1Cc2cc(Cl)ccc2-n2c(nnc2C2CC=C(c3ccccc3)CC2)C1 (racemic)               nM    2.69

###

Here the recorded log10 Ki is given for each entry.
Target: human V1a receptor (Homo sapiens, UniProt P37288)
Construct: expressed in transfected cells; host or cells: HEK293 cells, transiently transfected; membranes
Experiment: human V1a receptor binding studies (3H-Vasopressin SPA, membranes of transfected HEK293 cells)
Details: 3H-Vasopressin displacement, HEK293 cell membranes, SPA beads, 1 h at room temperature, Ki by Cheng-Prussoff from IC50, read-out: pKi (hV1a) (converted)
Experimental: The human V1a receptor was cloned by RT-PCR from total human liver RNA. The coding sequence was subcloned in an expression vector after sequencing to confirm the identity of the amplified sequence. […] Cell membranes were prepared from HEK293-cells transiently transfected with the expression vector and grown in 20 liter fermenters with the following protocol. […]
Counter-ions that a name gives are not always drawn.
RECORDED_ENDPOINT: log10 Ki (log10 of the value in nM)

> print(dat)
                                   molecule                               system.name  result
1  Cc1nc(C2=CCC(c3nnc4n3-c3ccc(Cl)cc3CNC4)CC2)cs1 (racemic) [Example 35]  human V1a receptor (Homo sapiens, UniProt P37288)    2.23
2  CC(C)(C)OC(=O)N1Cc2cc(Cl)ccc2-n2c(nnc2C2CC=C(c3cc(F)ccn3)CC2)C1 (racemic) [Example 25]  human V1a receptor (Homo sapiens, UniProt P37288)    0.67
3  COc1ccc(F)cc1C1=CCC(c2nnc3n2-c2ccc(Cl)cc2CN(C)C3)CC1 (racemic) [Example 19]  human V1a receptor (Homo sapiens, UniProt P37288)    1.00
4  CC(C)(C)OC(=O)N1Cc2cc(Cl)ccc2-n2c(nnc2C2CC=C(c3ccc(F)cc3)CC2)C1 (racemic) [Example 5]  human V1a receptor (Homo sapiens, UniProt P37288)    0.92
5  CN1Cc2cc(Cl)ccc2-n2c(nnc2C2CC=C(c3cccc(F)c3Cl)CC2)C1 (racemic) [Example 13]  human V1a receptor (Homo sapiens, UniProt P37288)    0.76
6  CN1Cc2cc(Cl)ccc2-n2c(nnc2C2CC=C(c3ccc(F)cc3)CC2)C1 (racemic) [Example 7]  human V1a receptor (Homo sapiens, UniProt P37288)    0.83
7  Fc1cccc(C2=CCC(c3nnc4n3-c3ccc(Cl)cc3CNC4)CC2)c1Cl (racemic) [Example 12, hydrochloride]  human V1a receptor (Homo sapiens, UniProt P37288)    1.46
